Hello, the source for this data is patent US20030129222A1, in case you need it.

Tested on: MCF7 breast, mitox (mitoxantrone-resistant)
TEST_SUMMARY: Cytotoxicity in tumor cell culture, SRB assay
Format: cell-based, human
STUDY_CONDITIONS: mitoxantrone-resistant; read-out: IC50 against human mouse tumors, MCF7 breast mitox
Friendly reminder: IC50 below 3 µM is yes (1), at or above is no (0).

See these solved cases before continuing.
INSERT INTO assay_data (compound, target_or_test_system, answer_label) VALUES
  ('N#CC1CN1C(=O)Nc1ccc(Cl)cc1Cl (stereo not shown) [Compound 17]', 'MCF7 breast, mitox (mitoxantrone-resistant)', 'yes (1)'),
  ('N#CC1CN1C(=O)NC1CCCCC1 (stereo not shown) [Compound 10]', 'MCF7 breast, mitox (mitoxantrone-resistant)', 'no (0)'),
  ('CCNC(=O)N1CC1C#N (stereo not shown) [Compound 7, 2-Cyanoaziridine-1-(N-ethyl) carboxamide]', 'MCF7 breast, mitox (mitoxantrone-resistant)', 'no (0)'),
  ('CCCCNC(=O)N1CC1C#N (stereo not shown) [Compound 8, 2-Cyanoaziridine-1-(N-butyl) carboxamide]', 'MCF7 breast, mitox (mitoxantrone-resistant)', 'no (0)'),
  ('N#CC1CN1C(=O)Nc1cccnc1 (stereo not shown) [Compound 24]', 'MCF7 breast, mitox (mitoxantrone-resistant)', 'no (0)');

Attention now turns to another entry.
Exercise: Bench note: check whether N#CC1CN1C(=O)Nc1ccc(S(N)(=O)=O)cc1 (stereo not shown) [Compound 22] shows IC50 below 3 µM
Key: no (0)

* * *

Record form. Attribute: pIC50. Fill in for each entry.
Test system: 8226 myeloma, Sens (drug-sensitive)
TEST_SUMMARY: Cytotoxicity in tumor cell culture, SRB assay
Type: cell-based, human
STUDY_CONDITIONS: drug-sensitive line; read-out: IC50 against human mouse tumors, 8226 myeloma Sens
Numbers only, as −log10 of the molar value.

Answered cases to consult:
INSERT INTO assay_data (molecule, quantity_measured, recorded_measurement) VALUES
  ('N#CC1CN1C(=O)Nc1ccc([N+](=O)[O-])cc1 (stereo not drawn)', 'pIC50', 5.04),
  ('N#CC1CN1C(=O)NCc1ccccc1 (stereo not drawn)', 'pIC50', 5.05),
  ('N#CC1CN1C(=O)Nc1cccnc1 (stereo not drawn)', 'pIC50', 4.92);

Report pIC50 for every entry below.
1. N#CC1CN1C(=O)Nc1cccc2ccccc12 (stereo not drawn)
2. CC(=O)Oc1ccccc1NC(=O)N1CC1C#N (stereo not drawn)
3. N#CC1CN1C(=O)Nc1ccc(C(F)(F)F)cc1 (stereo not drawn)

Key:
[5.10, 5.06, 5.09]

* * *

Tested on: L1210 leukemia, Sens
TEST_SUMMARY: Cytotoxicity in tumor cell culture, MTT assay
Format: cell-based, murine
STUDY_CONDITIONS: MTT assay; read-out: IC50 against human mouse tumors, L1210 leukemia Sens
QUANTITY_MEASURED: pIC50
Numbers only, as −log10 of the molar value.

Answered cases to consult:
INSERT INTO measurements (compound, recorded_measurement) VALUES
  ('N#CC1CN1C(=O)Nc1ccc(C(F)(F)F)cc1 (stereo not drawn) [Compound 15]', 5.11),
  ('N#CC1CN1C(=O)NCc1ccccc1 (stereo not drawn) [Compound 11]', 5.42),
  ('N#CC1CN1C(=O)Nc1cccc2ccccc12 (stereo not drawn) [Compound 23]', 5.14),
  ('CCNC(=O)N1CC1C#N (stereo not drawn) [Compound 7, 2-Cyanoaziridine-1-(N-ethyl) carboxamide]', 4.85);

Here N#CC1CN1C(=O)Nc1ccc(Cl)c(Cl)c1 (stereo not drawn) [Compound 18] was tested on L1210 leukemia, Sens, and its pIC50 came to 5.59
